Reference for the values: patent US20240391954A1

target: human MC3R (Homo sapiens, UniProt P41968); construct: expressed in transfected cells; host or cells: HEK-293 cells stably expressing the GScAMP22F split-luciferase cAMP sensor (parent reporter line from Promega); MC3R clone generated in-house, G418 selection; experiment: split-luciferase cAMP sensor assay, agonist mode (measurement window 1), hMC3R; type: cell-based; settings: MC4R versus MC3R
Sequence (P41968 whole entry): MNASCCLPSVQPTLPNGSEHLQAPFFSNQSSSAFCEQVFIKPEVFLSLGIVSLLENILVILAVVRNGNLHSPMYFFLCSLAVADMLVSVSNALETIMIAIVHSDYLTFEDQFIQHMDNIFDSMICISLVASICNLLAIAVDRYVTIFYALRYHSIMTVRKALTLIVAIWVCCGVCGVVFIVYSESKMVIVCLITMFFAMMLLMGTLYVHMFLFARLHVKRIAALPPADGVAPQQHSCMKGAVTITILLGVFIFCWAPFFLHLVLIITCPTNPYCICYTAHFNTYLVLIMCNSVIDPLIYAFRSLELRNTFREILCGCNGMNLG
Positions of bridges follow the written chain, without caps; N, C: chain ends. Non-standard residues stand in square brackets, D forms with d. Residues, ends and D or L forms follow the SMILES beside them. 2Pal = N[C@@H](Cc1ccccn1)C(=O)O; Cit = NC(=O)NCCC[C@H](N)C(=O)O; Nle = CCCC[C@H](N)C(=O)O; Orn = NCCC[C@H](N)C(=O)O
Decision: MC4R selectivity vs MC3R compared against 10; not below it gives TRUE, below it gives FALSE.

>  <Compound>
CCCC[C@H](NC(=O)[C@H](CCCNC(=N)N)NC(C)=O)C(=O)N[C@H]1CSSC[C@@H](C(N)=O)NC(=O)[C@H](Cc2c[nH]c3ccccc23)NC(=O)[C@H](CCCNC(=N)N)NC(=O)[C@H](Cc2ccccc2)NC(=O)[C@H](CCCNC(N)=O)NC1=O [CTX-1609, Arg-Nle-cyclo(Cys-Cit-Phe-Arg-Trp-Cys)] (Ac-R[Nle]C[Cit]FRWC-NH2; disulfide 3-8 (inferred))

>  <Measured target>
human MC3R (Homo sapiens, UniProt P41968)

>  <Group label>
FALSE

$$$$
>  <Compound>
N=C(N)NCCC[C@@H]1NC(=O)[C@@H](Cc2ccccc2)NC(=O)[C@H](CCCNC(N)=O)NC(=O)CNC(=O)CSC[C@@H](C(N)=O)NC(=O)[C@H](Cc2c[nH]c3ccccc23)NC1=O [CTX-1646] ({CH2CO}-G[Cit][dF]RWC-NH2; thioether N-6)

>  <Measured target>
human MC3R (Homo sapiens, UniProt P41968)

>  <Group label>
TRUE

$$$$
>  <Compound>
CCCC[C@H](NC(=O)[C@H](CCCNC(=N)N)NC(C)=O)C(=O)N[C@H]1CSSC[C@@H](C(N)=O)NC(=O)[C@H](Cc2c[nH]c3ccccc23)NC(=O)[C@H](CCCNC(=N)N)NC(=O)[C@@H](Cc2ccccc2)NC(=O)[C@H](CCCN)NC1=O [CTX-1617, Arg-Nle-cyclo(Cys-Orn-D-Phe-Arg-Trp-Cys)] (Ac-R[Nle]C[Orn][dF]RWC-NH2; disulfide 3-8)

>  <Measured target>
human MC3R (Homo sapiens, UniProt P41968)

>  <Group label>
TRUE

$$$$
>  <Compound>
CC(=O)N[C@@H](CCCNC(=N)N)C(=O)N[C@H]1CSSC[C@@H](C(N)=O)NC(=O)[C@H](Cc2c[nH]c3ccccc23)NC(=O)[C@H](CCCNC(=N)N)NC(=O)[C@@H](Cc2ccccc2)NC(=O)[C@H](CCCNC(N)=O)NC(=O)C(C)(C)NC1=O

>  <Measured target>
human MC3R (Homo sapiens, UniProt P41968)

>  <Group label>
TRUE

$$$$
>  <Compound>
CC(=O)N[C@@H](CCCNC(=N)N)C(=O)N[C@H]1CSSC[C@@H](C(N)=O)NC(=O)[C@H](Cc2c[nH]c3ccccc23)NC(=O)[C@H](CCCNC(=N)N)NC(=O)[C@@H](Cc2ccccc2)NC(=O)[C@H](Cc2c[nH]cn2)NC(=O)C(C)(C)NC1=O

>  <Measured target>
human MC3R (Homo sapiens, UniProt P41968)

>  <Group label>
FALSE

$$$$
>  <Compound>
CCCC[C@H](NC(=O)[C@H](CCCNC(=N)N)NC(C)=O)C(=O)N[C@H]1CSSC[C@@H](C(N)=O)NC(=O)[C@H](Cc2c[nH]c3ccccc23)NC(=O)[C@H](CCCNC(=N)N)NC(=O)[C@@H](Cc2ccccc2)NC(=O)[C@H](Cc2ccccn2)NC1=O [CTX-1619] (Ac-R[Nle]C[2Pal][dF]RWC-NH2; disulfide 3-8 (inferred))

>  <Measured target>
human MC3R (Homo sapiens, UniProt P41968)

>  <Group label>
TRUE

$$$$
